What Mean % WT Binding was measured for each of the following?
# study_system: human CD33 Q32A (human, UniProt P20138 18-364)
# Sequence (P20138 18-364 Q32A limits assumed): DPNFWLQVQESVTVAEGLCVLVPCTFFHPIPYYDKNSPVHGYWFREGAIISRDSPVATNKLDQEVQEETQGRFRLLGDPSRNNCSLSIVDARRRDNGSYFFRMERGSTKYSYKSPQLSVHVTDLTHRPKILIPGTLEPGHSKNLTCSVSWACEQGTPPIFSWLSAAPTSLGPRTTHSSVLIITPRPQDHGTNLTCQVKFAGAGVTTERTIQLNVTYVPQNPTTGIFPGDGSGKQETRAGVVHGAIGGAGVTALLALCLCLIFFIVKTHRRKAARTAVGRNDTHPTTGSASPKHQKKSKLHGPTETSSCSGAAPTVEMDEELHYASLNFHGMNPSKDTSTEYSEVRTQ
# method_summary: alanine scan, flow cytometry;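 note: HEK293-T cells transiently expressing single-residue alanine mutants of CD33 (alanine swapped to serine), antibody binding read by fluorescence in duplicate, background-subtracted, expressed relative to wild-type CD33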
Your answer is read as % WT, so omit the unit and give the number.

Q) Bench note: what Mean % WT Binding did Refmab #4 (antibody, V domains shown, Full-length format is human IgG1 Fc silent (PG-LALA); The alanine scan used IgG or Fab) VH: QVQLVQSGAEVKKPGESVKVSCKASGYTFTNYGMNWVKQAPGQGLEWMGWINTYTGEPTYADKFQGRVTMTTDTSTSTAYMEIRNLGGDDTAVYYCARWSWSDGYYVYFDYWGQGTSVTVSS VL: DIVMTQSPDSLTVSLGERTTINCKSSQSVLDSSTNKNSLAWYQQKPGQPPKLLLSWASTRESGIPDRFSGSGSGTDFTLTIDSPQPEDSATYYCQQSAHFPITFGQGTRLEIK show?
A) 83

Q) Follow-up entry: Refmab #3 (antibody, V domains shown, Full-length format is human IgG1 Fc silent (PG-LALA); The alanine scan used IgG or Fab) VH: QVQLVQSGAEVKKPGSSVKVSCKASGYTFTDYNMHWVRQAPGQGLEWIGYIYPYNGGTGYNQKFKSKATITADESTNTAYMELSSLRSEDTAVYYCARGRPAMDYWGQGTLVTVSS VL: DIQMTQSPSSLSASVGDRVTITCRASESVDNYGISFMNWFQQKPGKAPKLLIYAASNQGSGVPSRFSGSGSGTDFTLTISSLQPDDFATYYCQQSKEVPWTFGQGTKVEIK
A) 133

Q) Next up: Refmab #1 (antibody, V domains shown, Full-length format is human IgG1 (Absolute Antibody Ab00283-10.0); The alanine scan used IgG or Fab; also called hP67.6) VH: EVQLVQSGAEVKKPGSSVKVSCKASGYTITDSNIHWVRQAPGQSLEWIGYIYPYNGGTDYNQKFKNRATLTVDNPTNTAYMELSSLRSEDTAFYYCVNGNPWLAYWGQGTLVTVSS VL: DIQLTQSPSTLSASVGDRVTITCRASESLDNYGIRFLTWFQQKPGKAPKLLMYAASNQGSGVPSRFSGSGSGTEFTLTISSLQPDDFATYYCQQTKEVPWSFGQGTKVEVK
A) 87

Q) Follow-up item: Refmab #2 (antibody, V domains shown, Full-length format is human IgG1 Fc silent (PG-LALA); The alanine scan used IgG or Fab) VH: QVQLVQSGAEVKKPGSSVKVSCKASGGTFSDYAISWVRQAPGQGLEWMGRIIPILGVADYAQKFQGRVTITADKSTRTAYMELSSLRSEDTAVYYCARNWADAFDIWGQGTMVTVSS VL: DIQLTQSPSSLSASVGDRVTITCRASQGISSVLAWYQQKPGKAPKLLIYDASSLESGVPSRFSGSGSGTDFTLTISSLQPEDFATYYCQQFDSSITFGQGTKLEIK
A) 108
